biological target: UniProt P14625; test: Inhibition of recombinant Grp94 (unknown origin) assessed as tracer bound at 25 uM after 24 hrs by fluorescence polarization assay relative to control; design: scale not given: the % may be the effect or the level left
Sequence (P14625 whole entry): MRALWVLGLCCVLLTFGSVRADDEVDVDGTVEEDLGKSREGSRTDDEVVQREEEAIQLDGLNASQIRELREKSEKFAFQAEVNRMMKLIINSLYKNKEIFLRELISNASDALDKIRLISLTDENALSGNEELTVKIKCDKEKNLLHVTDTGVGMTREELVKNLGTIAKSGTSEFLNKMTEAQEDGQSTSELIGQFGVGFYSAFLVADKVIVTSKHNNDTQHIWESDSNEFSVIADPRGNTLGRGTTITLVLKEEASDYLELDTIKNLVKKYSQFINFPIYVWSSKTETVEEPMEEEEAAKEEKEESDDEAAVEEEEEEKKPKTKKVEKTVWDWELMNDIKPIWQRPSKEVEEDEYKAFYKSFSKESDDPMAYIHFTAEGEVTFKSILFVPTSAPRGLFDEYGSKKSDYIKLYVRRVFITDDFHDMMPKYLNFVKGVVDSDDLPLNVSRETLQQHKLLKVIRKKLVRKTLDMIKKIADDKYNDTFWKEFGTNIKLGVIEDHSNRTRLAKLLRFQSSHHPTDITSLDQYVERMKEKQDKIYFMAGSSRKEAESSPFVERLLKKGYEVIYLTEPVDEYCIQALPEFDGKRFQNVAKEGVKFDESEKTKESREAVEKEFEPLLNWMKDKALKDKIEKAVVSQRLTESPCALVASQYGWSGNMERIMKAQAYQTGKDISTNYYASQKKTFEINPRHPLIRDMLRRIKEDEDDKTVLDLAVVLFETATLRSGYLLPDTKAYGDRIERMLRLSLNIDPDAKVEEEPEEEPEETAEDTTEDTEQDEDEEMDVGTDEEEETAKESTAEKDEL
measured.endpoint: Activity (%)

Answered cases to consult:
1. COC(=O)c1c(O)cc(O)c(Cl)c1CCC(=O)Nc1ccc(F)cc1 10.9
2. COC(=O)c1c(O)cc(O)c(Cl)c1CCC(=O)Nc1ncns1 10.2

[A] COC(=O)c1c(O)cc(O)c(Cl)c1CCC(=O)Nc1ncccc1Br
[B] COC(=O)c1c(O)cc(O)c(Cl)c1CCC(=O)Nc1ccccc1I
[C] COC(=O)c1c(O)cc(O)c(Cl)c1CCC(=O)Nc1ccccc1N
[D] COC(=O)c1c(O)cc(O)c(Cl)c1CCC(=O)Nc1cccnn1
List from greatest to least Activity. # list labels per requested ordering
C, D, B, A
(C: 20.5%, D: 12.2%, B: 7.9%, A: 0.2%)

* * *

target: Endoplasmin (Homo sapiens); assay: Inhibition of recombinant Grp94 (unknown origin) assessed as tracer bound at 25 uM after 24 hrs by fluorescence polarization assay relative to control; parameters: scale not given: the % may be the effect or the level left
measured.endpoint: Activity (%)

1) COC(=O)c1c(O)cc(O)c(Cl)c1CCC(=O)Nc1ccc(OC)cc1 19.8
2) COC(=O)c1c(O)cc(O)c(Cl)c1CCC(=O)Nc1ccccc1OC 16.1
3) COC(=O)c1c(O)cc(O)c(Cl)c1CCC(=O)Nc1nnc(Br)s1 5.1
4) COC(=O)c1c(O)cc(O)c(Cl)c1CCC(=O)N(C)c1ccccc1 16.7

[I] COC(=O)c1c(O)cc(O)c(Cl)c1CCC(=O)Nc1ccccc1
[II] COC(=O)c1c(O)cc(O)c(Cl)c1CCC(=O)Nc1cc(Cl)ccn1
Could you tell me which of I and II has the lower Activity reading? Bench note: the answer is the label of the chosen record.
II

[1] COC(=O)c1c(O)cc(O)c(Cl)c1CCC(=O)N(c1ccccc1)C(C)C
[2] COC(=O)c1c(O)cc(O)c(Cl)c1CCC(=O)Nc1cnncn1
[3] COC(=O)c1c(O)cc(O)c(Cl)c1CCC(=O)NCc1ccccc1
Exam item: list the entries in increasing order of Activity. # list labels per requested ordering
2, 1, 3

[I] COC(=O)c1c(O)cc(O)c(Cl)c1CCC(=O)Nc1cccc(OC)c1
[II] COC(=O)c1c(O)cc(O)c(Cl)c1CCC(=O)Nc1ccc(N)cc1
Could you tell me which of I and II has the lower Activity reading? Bench note: the answer is the label of the chosen record.
II

* * *

target: Endoplasmin (Homo sapiens); assay: Inhibition of recombinant Grp94 (unknown origin) assessed as tracer bound at 25 uM after 24 hrs by fluorescence polarization assay relative to control; parameters: scale not given: the % may be the effect or the level left
measured.endpoint: Activity (%)

1. COC(=O)c1c(O)cc(O)c(Cl)c1CCC(=O)N(O)c1ccccc1 2.5
2. COC(=O)c1c(O)cc(O)c(Cl)c1CCC(=O)Nc1cccc(Cl)n1 1.4
3. COC(=O)c1c(O)cc(O)c(Cl)c1CCC(=O)Nc1cccc(N)c1 17.4
4. COC(=O)c1c(O)cc(O)c(Cl)c1CCC(=O)Nc1cccc(Cl)c1 0.1
5. COC(=O)c1c(O)cc(O)c(Cl)c1CCC(=O)Nc1ccc(O)cc1 6.5

[P] COC(=O)c1c(O)cc(O)c(Cl)c1CCC(=O)Nc1ccccc1Cl
[Q] COC(=O)c1c(O)cc(O)c(Cl)c1CCC(=O)Nc1ccc(Br)cc1
Could you tell me which of P and Q has the lower Activity reading? Bench note: the answer is the label of the chosen record.
P
